Kindly state aptamer binding inhibition for each of the entries shown.
# tgt: Beta-adrenergic receptor kinase 1 (Homo sapiens) (UniProt P25098)
# Sequence (P25098 whole entry, looked up): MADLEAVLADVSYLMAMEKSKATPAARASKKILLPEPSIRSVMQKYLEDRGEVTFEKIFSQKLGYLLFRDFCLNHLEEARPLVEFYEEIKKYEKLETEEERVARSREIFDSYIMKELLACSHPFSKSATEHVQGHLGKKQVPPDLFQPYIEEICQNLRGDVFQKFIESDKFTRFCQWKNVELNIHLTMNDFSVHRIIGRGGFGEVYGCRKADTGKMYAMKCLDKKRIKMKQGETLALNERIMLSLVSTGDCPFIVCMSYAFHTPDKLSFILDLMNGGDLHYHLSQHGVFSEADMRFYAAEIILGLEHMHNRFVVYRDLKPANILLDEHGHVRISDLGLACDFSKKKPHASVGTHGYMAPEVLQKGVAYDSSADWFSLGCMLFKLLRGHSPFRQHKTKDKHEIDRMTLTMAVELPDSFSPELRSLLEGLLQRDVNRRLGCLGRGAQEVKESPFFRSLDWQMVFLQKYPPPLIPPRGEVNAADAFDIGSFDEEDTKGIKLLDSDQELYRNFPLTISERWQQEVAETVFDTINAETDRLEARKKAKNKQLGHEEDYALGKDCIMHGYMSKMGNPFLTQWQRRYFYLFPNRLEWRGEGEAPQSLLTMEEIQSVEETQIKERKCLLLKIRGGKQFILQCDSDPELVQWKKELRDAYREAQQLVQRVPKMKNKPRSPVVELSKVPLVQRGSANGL
# assay_info: GRK2 binders displacing RNA aptamer, biochemical, validation, human GRK2, bead flow cytometry (AID 488806)
# study_conditions: bead-bound GRK2, FAM-aptamer displacement, at 10 µM, hits give high values
Dear colleague, please return just the value in %, with no unit written.

Given OC(C#CCN1CCCC1)(c1ccccc1)c1cccnc1 (stereo unspecified) , report its aptamer binding inhibition on Beta-adrenergic receptor kinase 1 (Homo sapiens) (UniProt P25098). 6

Given CC(=O)N1CCn2c3c(c4cc(C)ccc42)CCCC31 (stereo unspecified) , report its aptamer binding inhibition on Beta-adrenergic receptor kinase 1 (Homo sapiens) (UniProt P25098). 0

Given `CCN(CC)C(=O)c1sc(NC(=O)c2c(OC)cccc2OC)c(C#N)c1C` , report its aptamer binding inhibition on Beta-adrenergic receptor kinase 1 (Homo sapiens) (UniProt P25098). 4

Given `O=C(CCC(=O)c1cccs1)c1cccs1` , report its aptamer binding inhibition on Beta-adrenergic receptor kinase 1 (Homo sapiens) (UniProt P25098). 3

Given `Cc1c(Cc2ccccc2)c(=O)oc2c(CN(C)C)c(O)c(Cl)cc12` , report its aptamer binding inhibition on Beta-adrenergic receptor kinase 1 (Homo sapiens) (UniProt P25098). 3

Given `COc1ccc(-n2cc(CNCc3cccnc3)c(-c3cccc(F)c3)n2)cc1` , report its aptamer binding inhibition on Beta-adrenergic receptor kinase 1 (Homo sapiens) (UniProt P25098). 0
